Kindly supply the reported inhibition at 500 µM values for the records listed here.
- assayed_target: dihydrofolate reductase (Homo sapiens, UniProt P00374)
- Sequence (P00374 1-187): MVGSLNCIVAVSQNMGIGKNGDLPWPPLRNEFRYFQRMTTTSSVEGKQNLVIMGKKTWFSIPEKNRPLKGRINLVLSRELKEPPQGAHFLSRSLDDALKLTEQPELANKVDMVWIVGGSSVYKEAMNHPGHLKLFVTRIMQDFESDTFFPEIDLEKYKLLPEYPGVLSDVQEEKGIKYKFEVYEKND
- procedure_details: Dihydrofolate reductase enzyme inhibition assay
- Type: biochemical
- test_conditions: read-out: % inhibition (0.5 mM)
Give bare numbers, in %.

Example cases with answers are listed next.
[[record]]
smiles_text = "S=C(NCc1ccccc1)NN=Cc1ccc(N2CCCC2)cc1"
units_text = "%"
value_observed = 74.6

[[record]]
smiles_text = "S=C(NCCc1ccccc1)NN=Cc1ccc(N2CCCC2)cc1"
units_text = "%"
value_observed = 91.5

[[record]]
smiles_text = "COc1ccc(NC(=S)NN=Cc2ccc(N3CCCC3)cc2)cc1"
units_text = "%"
value_observed = 91.1

[[record]]
smiles_text = "S=C(NN=Cc1ccc(N2CCCC2)cc1)Nc1cccc(Cl)c1Cl"
units_text = "%"
value_observed = 81.3

[[record]]
smiles_text = "Fc1ccc(NC(=S)NN=Cc2ccc(N3CCCC3)cc2)cc1"
units_text = "%"
value_observed = 80.6


For each of the molecules below, note its inhibition at 500 µM.
1. S=C(NN=Cc1ccc(N2CCCC2)cc1)Nc1cccc(Br)c1
2. S=C(NN=Cc1ccc(N2CCCC2)cc1)NC1CCCCC1
3. S=C(NCc1ccc(Cl)cc1)NN=Cc1ccc(N2CCCC2)cc1
4. COc1cccc(NC(=S)NN=Cc2ccc(N3CCCC3)cc2)c1
5. S=C(NN=Cc1ccc(N2CCCC2)cc1)Nc1ccccc1

1. 88.2
2. 83.6
3. 83.9
4. 86.7
5. 86.2

---

- assayed_target: dihydrofolate reductase (Homo sapiens, UniProt P00374)
- Sequence (P00374 1-187): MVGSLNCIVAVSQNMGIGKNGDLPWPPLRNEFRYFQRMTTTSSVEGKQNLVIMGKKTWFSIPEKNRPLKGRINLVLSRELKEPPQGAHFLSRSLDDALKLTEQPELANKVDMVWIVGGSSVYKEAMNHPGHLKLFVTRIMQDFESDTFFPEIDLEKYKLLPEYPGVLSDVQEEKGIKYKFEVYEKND
Kindly supply the reported IC50 values for the records listed here.
Answers are plain numbers, in µM.

Example cases with answers are listed next.
[[record]]
compound = "S=C(NN=Cc1ccc(N2CCCC2)cc1)Nc1ccc(Br)cc1 [Compound 5m]"
value_observed = 16.3

[[record]]
compound = "COc1cccc(NC(=S)NN=Cc2ccc(N3CCCC3)cc2)c1 [Compound 5h]"
value_observed = 23.1


Now for the compound whose IC50 we want.
Name the recorded IC50 of the item Cc1ccc(CNC(=S)NN=Cc2ccc(N3CCCC3)cc2)cc1 [Compound 5r] in your answer.
42.2

---

Kindly supply the reported pIC50 values for the records listed here.
Target chain: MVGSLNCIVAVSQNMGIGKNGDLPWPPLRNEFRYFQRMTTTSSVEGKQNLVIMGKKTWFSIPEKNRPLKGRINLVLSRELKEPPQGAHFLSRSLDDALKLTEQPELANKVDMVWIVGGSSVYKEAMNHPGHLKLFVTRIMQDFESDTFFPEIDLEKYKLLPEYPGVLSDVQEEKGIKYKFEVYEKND
Numbers only, as −log10 of the molar value.

[[record]]
compound = "Fc1ccccc1NC(=S)NN=Cc1ccc(N2CCCC2)cc1 [Compound 5q]"
value_observed = 4.45


For each of the compounds below, note its pIC50.
1. S=C(NCCc1ccccc1)NN=Cc1ccc(N2CCCC2)cc1 [Compound 5l]
2. O=[N+]([O-])c1ccc(NC(=S)NN=Cc2ccc(N3CCCC3)cc2)cc1 [Compound 5j]
3. S=C(NN=Cc1ccc(N2CCCC2)cc1)NC1CCCCC1 [Compound 5a]
4. O=[N+]([O-])c1cccc(NC(=S)NN=Cc2ccc(N3CCCC3)cc2)c1 [Compound 5o]

4.91
4.27
4.54
4.34

Where do these numbers come from? They come from paper PMC11460214.
